REPORTED_METRIC: pKi
As a rule, pKi stands for the negative log10 of the concentration, concentration in M.

pKi of O=c1c2cnc3ccccc3c2ncn1CCCN1CCN(c2ccc(F)cc2)CC1 on UniProt:P19327?
6.89

Lab note: need pKi with UniProt:P19327 for entry COc1ccccc1N1CCN(CCn2cnc3c(cnc4ccc(C)cc43)c2=O)CC1 , please look it up.
Sequence (P19327 whole entry): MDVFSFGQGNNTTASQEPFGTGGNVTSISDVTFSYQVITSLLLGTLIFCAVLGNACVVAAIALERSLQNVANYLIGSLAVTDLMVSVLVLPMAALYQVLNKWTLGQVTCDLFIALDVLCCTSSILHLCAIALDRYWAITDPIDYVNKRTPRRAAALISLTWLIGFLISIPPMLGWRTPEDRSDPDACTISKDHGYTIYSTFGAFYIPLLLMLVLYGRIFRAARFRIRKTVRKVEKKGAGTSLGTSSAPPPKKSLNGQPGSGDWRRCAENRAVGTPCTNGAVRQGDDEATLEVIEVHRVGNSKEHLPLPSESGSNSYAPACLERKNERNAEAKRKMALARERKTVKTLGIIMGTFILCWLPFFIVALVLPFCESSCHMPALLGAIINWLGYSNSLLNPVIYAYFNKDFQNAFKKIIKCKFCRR
7.09

Checklist item: pKi tested on UniProt:P19327, entry COc1ccccc1N1CCN(CCCCn2cnc3c(cnc4ccc(C)cc43)c2=O)CC1 , value?
8.10

Form field: pKi recorded for O=c1c2cnc3ccccc3c2ncn1CCCCN1CCN(c2ccccc2Cl)CC1 with UniProt:P19327 (enter value)
7.77

Notebook: pull reported pKi for UniProt:P19327, entry O=c1c2cnc3ccccc3c2ncn1CCCCN1CCN(c2ccccc2)CC1
7.55

Recall the recorded pKi for Cc1ccccc1N1CCN(CCCCn2cnc3c(cnc4ccccc43)c2=O)CC1 with UniProt:P19327 and state it.
7.28

What reported pKi corresponds to COc1ccccc1N1CCN(CCCn2cnc3c(cnc4cc(C)ccc43)c2=O)CC1 on UniProt:P19327?
7.51

Record lookup: for UniProt:P19327, what pKi belongs to O=c1c2cnc3ccccc3c2ncn1CCN1CCN(c2cccc(Cl)c2)CC1 ?
7.26
